Value source: ChEMBL document CHEMBL4033712

test system: IGROV-1; experiment: Growth inhibition of human IGROV1 cells incubated for 48 hrs by sulforhodamine B assay; format: functional; conditions: IGROV-1, 48 h
Each item that follows carries a reported GI50.
Express your answer in nM, writing the number without its unit.

- Molecule: "C=C1CC[C@@H]2[C@](C)(COC(C)=O)[C@H](OC(C)=O)CC[C@@]2(C)[C@H]1CC(Nc1ccc(S(=O)(=O)Nc2ccc(Cl)nn2)cc1)C1=CCOC1=O (stereo not given in full)"
  GI50 / nM: 2080
- Molecule: "C=C1CC[C@@H]2[C@](C)(COC(C)=O)[C@H](OC(C)=O)CC[C@@]2(C)[C@H]1CC(Nc1ccc(S(=O)(=O)Nc2nccc(C)n2)cc1)C1=CCOC1=O (stereo not given in full)"
  GI50 / nM: 3620
- Molecule: "C=C1CC[C@@H]2[C@](C)(COC(C)=O)[C@H](OC(C)=O)CC[C@@]2(C)[C@H]1CC(Nc1ccc(S(=O)(=O)Nc2cc(C)on2)cc1)C1=CCOC1=O (stereo not given in full)"
  GI50 / nM: 2360
- Molecule: "C=C1CC[C@@H]2[C@](C)(COC(C)=O)[C@H](OC(C)=O)CC[C@@]2(C)[C@H]1CC(Nc1ccc(S(=O)(=O)Nc2ncccn2)cc1)C1=CCOC1=O (stereo not given in full)"
  GI50 / nM: 2040

Continue with the molecule presented below.
q: Quick one: GI50 for C=C1CC[C@@H]2[C@](C)(COC(C)=O)[C@H](OC(C)=O)CC[C@@]2(C)[C@H]1CC(Nc1ccc(S(=O)(=O)Nc2nccs2)cc1)C1=CCOC1=O (stereo not given in full) ?
a: 4540
